molecular target: human plasma kallikrein (HPK) (Homo sapiens); experiment: Inhibition of human plasma kallikrein (KI); type: biochemical; details: Table 6, HUK; read-out: KI HUK
Sequence (P03952 20-638): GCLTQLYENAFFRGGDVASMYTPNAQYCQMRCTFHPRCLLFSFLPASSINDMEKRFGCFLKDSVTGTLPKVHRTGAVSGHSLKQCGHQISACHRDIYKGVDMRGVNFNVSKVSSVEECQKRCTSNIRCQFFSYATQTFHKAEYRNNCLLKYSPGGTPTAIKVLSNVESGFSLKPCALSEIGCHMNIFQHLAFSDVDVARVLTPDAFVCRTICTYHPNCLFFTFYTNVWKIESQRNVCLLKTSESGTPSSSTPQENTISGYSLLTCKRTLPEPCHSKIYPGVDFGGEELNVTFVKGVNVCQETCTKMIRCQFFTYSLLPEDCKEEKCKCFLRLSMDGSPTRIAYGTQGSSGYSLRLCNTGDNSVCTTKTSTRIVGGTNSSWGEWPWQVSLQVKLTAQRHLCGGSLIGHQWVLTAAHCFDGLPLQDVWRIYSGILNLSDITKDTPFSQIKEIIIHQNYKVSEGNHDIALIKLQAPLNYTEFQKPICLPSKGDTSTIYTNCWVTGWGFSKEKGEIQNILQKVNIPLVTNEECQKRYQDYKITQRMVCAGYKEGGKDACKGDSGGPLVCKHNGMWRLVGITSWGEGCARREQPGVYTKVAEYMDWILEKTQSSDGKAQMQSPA
pKi: −log10 of the molar value. Residues, ends and D or L forms follow the SMILES beside them.
measuredEndpoint: pKi

Recorded results for 2 compounds are shown here.
compound	pKi
N=C(N)NCCC[C@H](NC(=O)[C@H](CO)NC(=O)[C@H](CO)NC(=O)[C@H](CCCNC(=N)N)NC(=O)[C@H](Cc1ccccc1)NC(=O)[C@@H]1CCCN1)C(N)=O [Pro-Phe-Arg-Ser-Ser-Arg] (H-PFRSSR-NH2)	3.31
CC(C)[C@H](N)C(=O)N[C@@H](Cc1ccccc1)C(=O)N[C@@H](CCCNC(=N)N)C(=O)N[C@@H](CC(N)=O)C(=O)N[C@@H](CC(N)=O)C(=O)N[C@@H](CCCNC(=N)N)C(N)=O [Val-Phe-Arg-Asn-Asn-Arg] (H-VFRNNR-NH2)	3.91

[A] CC(C)[C@H](N)C(=O)N[C@@H](Cc1ccccc1)C(=O)N[C@@H](CCCNC(=N)N)C(=O)N[C@@H](CC(N)=O)C(=O)N[C@@H](CO)C(=O)N[C@@H](CCCNC(=N)N)C(N)=O [Val-Phe-Arg-Asn-Ser-Arg] (H-VFRNSR-NH2)
[B] CC[C@H](C)[C@H](NC(=O)[C@H](CCCNC(=N)N)NC(=O)[C@H](C)NC(=O)[C@H](CCCCN)NC(=O)[C@H](CS)NC(=O)[C@@H]1CCCN1)C(N)=O [Pro-Cys-Lys-Ala-Arg-Ile] (H-PCKARI-NH2)
In: Of the two listed items, A and B , which carries the larger pKi figure? Which one? Tell me its label.
Out: B
(B: 6.74, A: 3.71)
